Measured values drawn from a melting point compilation (Tetko et al.; mined from patent text by program, amines drawn as free bases though some values may be those of a salt) for this set.

The entries below are paired with their reported melting point.
Measured Parameter: melting point

# Molecule, Recorded Result
rows = [
    ("CC(=O)SCCc1noc(C(C)c2ccc(-c3ccccc3)c(F)c2)n1 (stereo not drawn)", "56 to 57 °C"),
    ("CCc1cccc(C)c1CNc1cc(Br)cc2c1nc(CO)n2C", "206 to 208 °C"),
    ("COc1ccccc1N1CCN(CCCn2c(=O)[nH]cc(C)c2=O)CC1", "168 to 170 °C"),
    ("Nc1ncc(-c2cccc3ccc(Br)cc23)o1", "189 to 190 °C"),
    ("CC1(C(O)(Cc2ccc(F)cc2)Cn2cncn2)CC1(F)F (stereo not drawn)", "114 °C"),
    ("O=C(O)c1ccc2oc(-c3ccccc3)cc(=O)c2c1", "281 to 283 °C"),
    ("COc1cccc(N2C(c3ccccc3Cl)=NS(=O)(=O)c3cnccc32)c1", "227 to 229 °C"),
    ("CCCN1NCc2c(C3C(=O)Nc4ccc(C(F)(F)F)cc43)ncnc21 (stereo not drawn)", "293 to 295 °C"),
    ("CCCSc1ncc(CC(NC(=O)C2CCCC2)C(=O)O)n1Cc1ccccc1Cl (stereo not drawn)", "173 to 175 °C"),
    ("CC(=O)Oc1c(C=C(C#N)C#N)[nH]c2ccccc12", "210 to 212 °C"),
    ("COc1ccc(N2CCOCC2)c2sc(-c3nc4c([nH]3)CCN(C(=O)c3ccccc3C)CC4)nc12", "194 to 196 °C"),
    ("O[C@@H]1CCCC[C@H]1N=Cc1ccccc1 (relative stereo)", "86 °C"),
    ("FC(F)Oc1ccc(C2=NNCC2n2cc(Cl)cn2)cc1 (stereo not drawn)", "93 °C"),
]

* * *

The entries below are paired with their reported melting point.

# Molecule, melting point
rows = [
    ("Cc1cc(N)cnc1CCCC#N", "103 to 105 °C"),
    ("CCOC(=O)C1=C(C(F)(F)F)Nc2n[nH]c(C)c2C1c1ccccc1Cl (centres undefined)", "165 to 168 °C"),
    ("CC(C)(C)c1cc(-c2cncn2CCCO)cc(C(C)(C)C)c1O", "166 to 167 °C"),
    ("Cc1c(-c2ccc(NC(=O)OC(C)(C)C)cc2)nc2n1CCc1ccccc1C2OC1CCN(C)CC1 (centres undefined)", "194 °C"),
    ("CCCCCCCCCCCCCCCCNc1cc(O)ccc1OCC", "88 to 90 °C"),
    ("CCn1ncc2c3noc(-c4ccc(C)cc4)c3cnc21", "221 to 222 °C"),
    ("CN(C)C1(c2ccccc2)CCC(CCCNC(=O)NCCc2c[nH]c3ccccc23)CC1 (centres undefined)", "57 °C"),
    ("COc1ccc(Nc2ccc(C)cc2)c(C(=O)O)c1", "160 to 161 °C"),
    ("CN(N)C1=Nc2ccc(Cl)cc2C(c2ccccc2)=NC1", "167 to 173 °C"),
    ("CCOC(=O)c1cc2c(OC)cc3c(c2[nH]1)CCCC3", "202 to 203 °C"),
    ("COC(=O)CCC(=O)Nc1cccc(COc2ccc(C(C)=O)c(OC)c2)c1", "124 °C"),
    ("CCN(CC)CC(O)CSCC(=O)O (centres undefined)", "104 °C"),
    ("Cc1ccc(C(=O)Nc2ccc3[nH]cc(C4CCN(C)CC4)c3n2)s1", "123 to 127 °C"),
    ("Cc1nc2cnccc2n1-c1ccc(Cn2c(=O)sc3ccccc32)cc1", "198 to 201 °C"),
    ("Cc1ccc(-c2cc(C(F)(F)F)nn2-c2ccc(S(N)(=O)=O)c(F)c2)cc1", "126 to 128 °C"),
    ("CC(=O)OC(c1cn2c(nc3ccccc32)s1)C1(Br)C(=O)N2C(C(=O)OCc3ccc([N+](=O)[O-])cc3)=CS[C@@H]21 (some centres undefined)", "78 °C"),
    ("COc1ccc(-c2c(Cl)c(CN3C(=O)CCC3=O)nc3sc4c(c23)CCC(O)C4)cc1 (centres undefined)", "218 to 220 °C"),
    ("CCCCCCCCCCCCCCCCCCNC(=O)c1ccc(O)cc1", "105 °C"),
    ("COc1cccc(CNC(=O)c2cc3c(=O)n(Cc4ccc([N+](=O)[O-])nc4)c(=O)n(C)c3s2)c1", "213 to 215 °C"),
]

* * *

The entries below are paired with their reported melting point.

# Compound, melting point
data = [
    ("Cc1ccc(S(=O)(=O)Nc2ccc(-c3ccc(S(=O)(=O)n4ccc(C=CC(=O)NO)c4)cc3)cc2)cc1", "119 to 126 °C"),
    ("Cc1oc(-c2ccccc2)nc1CCOc1ccc(CC#N)cc1", "109 to 110 °C"),
    ("Clc1ccc(-c2[nH]nc(C3=CCN4CCC[C@H]4C3)c2-c2ccncc2)cc1", "211 to 212 °C"),
    ("COc1cc(OC)c2c(=O)[nH]c(-c3cc(C)c(OCCN4CCN(C)CC4)c(C)c3)nc2c1", "180 to 182 °C"),
    ("Cc1ccc(N2CN(c3ccccc3)c3[nH]ncc3C2=O)cc1", "260 to 262 °C"),
    ("Cc1c(F)c(OC(F)F)cc2c1c(C#N)c(-c1ccc(S(=O)(=O)N[C@@H](C)C(F)(F)F)cn1)n2C1CCC1", "182 to 186 °C"),
    ("O=C1c2ccccc2C(=O)N1CCc1c[nH]c(=O)[nH]c1=O", "324 to 327 °C"),
    ("CCOCc1nc2c(c3cc(OCc4ccccc4)ccc3n3nnnc23)n1CC(C)C", "184 °C"),
    ("COc1ccc(NS(=O)(=O)c2ccc(N3CCC(NC[C@H](O)COc4ccc(O)cc4)CC3)cc2)cc1OC", "101 to 106 °C"),
    ("CSc1nc(C)c(Cc2ccccc2)c(=O)[nH]1", "220 to 222 °C"),
    ("Cc1ccccc1NC(=O)CN1C[C@@H](C)N(S(=O)(=O)c2cccc([N+](=O)[O-])c2)[C@@H](C)C1", "163 to 164 °C"),
    ("COc1cc(Nc2c(C#N)cnc3ccc(-c4csc(CN5CCOCC5)c4)cc23)c(Cl)cc1Cl", "145 to 147 °C"),
    ("O=C(CCl)Nc1ccc(NNC(=O)c2ccccc2CO)cc1", "172 to 173 °C"),
    ("COc1cc2c(cc1O)C(O)CN(Cc1cc(OC)c(OC)c(OC)c1)C2 (centres undefined)", "62 to 63 °C"),
    ("CCOC(=O)c1cc(-c2ccc(C)cc2)n(-c2ccc(S(N)(=O)=O)cc2)n1", "220 to 222 °C"),
    ("NCCCP(=O)(O)C(F)F", "261 °C"),
    ("COC(=O)c1cc(-c2c[nH]nc2-c2ccc(F)cc2)ccn1", "239 to 241 °C"),
    ("CCCCCCCNC(=O)Nc1ccc(OC)cc1NC(=O)c1cc(C(C)(C)C)c(O)c(C(C)(C)C)c1", "150 to 151 °C"),
    ("CC(Cc1ccc(Cl)c(Cl)c1)C(=O)Nc1cccc2ncccc12 (centres undefined)", "168 to 170 °C"),
    ("O=C(Nc1ccc2cc(CN3CCCC3)ccc2c1)c1ccc(-c2ccc(Cl)cc2)nc1", "270 to 274 °C"),
    ("CCOc1cc(-c2cc(C(F)(F)F)nc(-c3ccnc(-c4cccc(S(N)(=O)=O)c4)c3)n2)ccc1C(F)(F)F", "224 °C"),
    ("CCN(CC)CCCCC1CCCCN1CCNC(=O)N1c2ccccc2C(=O)Nc2cccnc21 (centres undefined)", "155 to 157 °C"),
    ("N#Cc1ccc(CC23CCCN2C(=O)N(c2cc(Cl)cc(-n4cccc4)c2)C3=O)cc1 (centres undefined)", "266 °C"),
    ("COc1cc(Nc2c(C#N)cnc3cc(-c4cscc4CN4CCOCC4)ccc23)c(Cl)cc1Cl", "188 to 190 °C"),
    ("N#Cc1ncn2c(C(F)(F)F)cc(-c3cccc(Cl)c3)nc12", "221 °C"),
    ("CC(C)(C)OC(=O)NN=C1CCN(C(=O)OC(C)(C)C)CC1", "172 to 174 °C"),
    ("N#Cc1ccc2c(c1)C(=C(Cl)Cl)OC(=C(Cl)Cl)O2", "167 to 168 °C"),
    ("O=C(O)C(Cc1ccccc1)NCc1ccccc1 (centres undefined)", "219 to 220 °C"),
    ("CCSc1ccc(C(=O)O)c(C(F)(F)F)c1", "134 °C"),
    ("CCCCNc1cc(-c2ccccc2)nc2nn(C)cc12", "160 to 161 °C"),
    ("CC(=O)O/N=C(\\C)[C@H]1CC[C@H]2[C@@H]3CCC4=CC(=O)CC[C@]4(C)[C@H]3CC[C@]12C", "158 to 160 °C"),
    ("CSc1nnc(N(C(=O)CCl)c2c(C)cccc2C)n1C", "145 to 147 °C"),
    ("Cn1nnnc1S(=O)(=O)CCCCBr", "83.5 to 85.5 °C"),
    ("O=[N+]([O-])c1cc(-c2cn3ncsc3n2)cc(O)c1O", "278 to 280 °C"),
]
